The reported measurements were obtained from paper PMC10791743.

System: 115 human cancer cell lines
Test name: Oncolines panel cell viability assay (ATPlite, 72 h)
Type: cell-based
Run conditions: Homo sapiens, SR, SR cells, ALCL; read-out: IC50
Experimental endpoint: IC50

Quick check: IC50 on 115 human cancer cell lines, item O=C1CCC(N2Cc3cc(Nc4noc5ccccc45)ccc3C2=O)C(=O)N1 (stereo not shown) [SJ3149] ?
0.058 µM

----------
System: 102 cell lines
Test name: Oncolines viability of 120 reference anti-cancer agents
Format: cell-based, human
Run conditions: cell line TCCSUP (Bladder carcinoma), TP53 Mutant
pIC50: −log10 of the molar value.
Experimental endpoint: pIC50

What pIC50 value was documented for this compound, COc1ccc(C2=N[C@@H](c3ccc(Cl)cc3)[C@@H](c3ccc(Cl)cc3)N2C(=O)N2CCNC(=O)C2)c(OC(C)C)c1 [Nutlin-3a] ?
< 4.50

----------
System: 102 cell lines
Test name: Oncolines viability of 120 reference anti-cancer agents
Type: cell-based, human
Run conditions: SJCRH30, Alveolar rhabdomyosarcoma, TP53 Mutant
pIC50: −log10 of the molar value.
Experimental endpoint: pIC50

What pIC50 value was documented for this compound, COc1ccc(C2=N[C@@H](c3ccc(Cl)cc3)[C@@H](c3ccc(Cl)cc3)N2C(=O)N2CCNC(=O)C2)c(OC(C)C)c1 [Nutlin-3a] ?
< 4.50

----------
System: 115 human cancer cell lines
Test name: Oncolines panel cell viability assay (ATPlite, 72 h)
Assay type: cell-based
Run conditions: Homo sapiens, LS174T, LS 174T; Colon adenocarcinoma; read-out: IC50
Experimental endpoint: pIC50
Note on pIC50: it is the negative log10 of concentration, concentration in mol/L.

What pIC50 value was documented for this molecule, O=C1CCC(N2Cc3cc(Nc4noc5ccccc45)ccc3C2=O)C(=O)N1 (stereo not shown) ?
7.80

----------
Test system: 115 human cancer cell lines
Test name: Oncolines panel cell viability assay (ATPlite, 72 h)
Assay type: cell-based
Run conditions: Homo sapiens, A498, cell line A-498, Renal cell carcinoma, TP53 Wild-type; read-out: IC50
Experimental endpoint: pIC50
Note on pIC50: it is the negative log10 of concentration, concentration in mol/L.

What pIC50 value was documented for this molecule, O=C1CCC(N2Cc3cc(Nc4noc5ccccc45)ccc3C2=O)C(=O)N1 (stereo not shown) [SJ3149] ?
5.25

----------
System: HCT 116
Test name: cells
Design: Oncolines panel cell viability, ATPlite 1Step luminescence, duplicate 9-point dose response, IC50
Run conditions: Homo sapiens, HCT-116; 72 h viability; read-out: SJ3149
Protocol: Cell viability assays were performed as previously described. In brief, cells were seeded in a 384-well plate at an optimized density. The starting cell number was determined after 24 h incubation by adding ATPlite 1Step (Perkin Elmer, Groningen, the Netherlands) to each well and recording luminescence on an Envision multimode reader (Perkin Elmer, Waltham, MA). […]
Experimental endpoint: IC50

Quick check: IC50 on HCT 116, item O=C1CCC(N2Cc3cc(Nc4noc5ccccc45)ccc3C2=O)C(=O)N1 (stereo not shown) ?
> 31.6 µM

----------
Tested on: 102 cell lines
Test name: Oncolines viability of 120 reference anti-cancer agents
Assay type: cell-based, human
Run conditions: RL, Diffuse large B-cell lymphoma, TP53 Mutant
Experimental endpoint: IC50

What IC50 value was documented for this compound, COc1ccc(C2=N[C@@H](c3ccc(Cl)cc3)[C@@H](c3ccc(Cl)cc3)N2C(=O)N2CCNC(=O)C2)c(OC(C)C)c1 [Nutlin-3a] ?
> 31.6 µM
